Data origin: PubChem BioAssay

- measurementTarget: Pro-neuregulin-1, membrane-bound isoform (Homo sapiens)
- assayMethodText: NRG1 binders on small-molecule microarrays, primary screen, psychiatric disease protein project, biochemical, small-molecule microarray, fluorescence 635/667 (AID 1075);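 further: score combines 667 nm spot fluorescence with signal to noise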
- assayContext: NRG1 binding, 635 nm fluorescence, higher = more signal
Returns one of Y or N; Y when composite z-score is >= 0.9.

Completed entries (count: 5):
COc1ccc(C(O)C2C=CC3C(=O)N(C)C(=O)C3N2Nc2ccccc2)cc1 (configuration not stated) = Y
CCCCC(=C=CC[C@@H](O)c1ccc(OCCO)cc1)CCO = Y
COC(=O)c1ccc(OC)c(/C=C\CC(OC(=O)c2ccncc2)c2ccccc2)c1 (configuration not stated) = N
C=C[C@@H](CO)NS(=O)(=O)c1ccc(Br)cc1 = N
CN(C)CCCCCCNC(=O)[C@@H]1C[C@@H]2C(=O)N[C@@H](CCCC[N+](C)(C)C)C(=O)N2[C@@H]1c1cccc(OCCO)c1 = N

Prompt line: Is the recorded value of composite z-score equal to or greater than 0.9 for this compound? `C=CCNC(=O)[C@H]1[C@@H]2C(=O)O[C@@H](c3ccccc3)[C@@H](c3ccccc3)N2[C@@H](c2ccc(O)cc2)[C@]12C(=O)Nc1ccccc12`
Response line: Y

Prompt line: Check the entry `COCCCNC(=O)[C@@]1(Cc2ccccc2I)c2ccccc2C(=O)N(C2CCCCC2)[C@H]1c1ccc(CO)cc1` : does composite z-score equal or exceed 0.9?
Response line: N

Prompt line: Determine whether this compound has composite z-score no lower than 0.9: `COc1ccc(CCNC(=O)[C@@]2(c3ccc([N+](=O)[O-])cc3)CC(=O)N(C3CCCCC3)[C@@H]2c2ccc(CO)cc2I)cc1`
Response line: N

Prompt line: Form field: composite z-score at least 0.9? Entry: `COCCCNC(=O)[C@@]1(Cc2ccccc2I)c2ccccc2C(=O)N(Cc2ccccc2C(F)(F)F)[C@H]1c1ccc(CO)cc1`
Response line: Y

Prompt line: Hi, just wondering whether O=C1C2C=CC(C(O)C3CCCCC3)N(Nc3ccccc3F)C2C(=O)N1c1ccccc1 (configuration not stated) shows composite z-score of 0.9 or higher.
Response line: Y

Prompt line: API: above_or_equal(metric=composite z-score, cutoff=0.9) for item `CCOC(=O)C[C@H]1[C@H](OC(=O)c2ccccc2-c2ccccc2)[C@@H](NC(=O)CC(C)C)c2cc(OCCCO)ccc2N1C(=O)c1ccccc1`
Response line: N

Prompt line: Given `COc1ccc([Si](C)(C)[C@H]2[C@H](CC(=O)N3CCC[C@H]3CO)O[C@@]3(C(=O)N(C)c4ccccc43)[C@@H]2C)cc1` , state whether its composite z-score is at least 0.9.
Response line: N
